Tested on: PmTbr T-box DNA-binding domain (GST fusion);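 also: 200 nM protein in PBS on universal arrays averaged over duplicate arrays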
Sequence: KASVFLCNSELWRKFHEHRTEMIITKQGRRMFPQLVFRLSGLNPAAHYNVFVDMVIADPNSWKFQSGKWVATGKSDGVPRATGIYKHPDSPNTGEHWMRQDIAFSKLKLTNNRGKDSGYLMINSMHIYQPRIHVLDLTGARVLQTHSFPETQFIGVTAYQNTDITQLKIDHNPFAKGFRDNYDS
Test: PBM E-score of 8-mer (E-score (dimensionless, -0.5 to 0.5)); Tbr is Tbrain of the sea star Patiria miniata (Pm) or the sea urchin Strongylocentrotus purpuratus (Sp); higher = stronger binding preference
Conditions: the construct has about 5 more residues each side
In all, about 33,000 sequences were measured (“E-score (dimensionless, -0.5 to 0.5)”: median about -0.049, highest 2% from about 0.37 on). The sample as a whole holds a higher share of the highest values than the screen did.
property: PBM E-score of 8-mer

• GGTGCGAC = 0.462
• AATAGACT = -0.175
• ACTGCGAT = 0.107
• CCTAACAA = 0.184
• ACTAACAG = 0.216
• GCTAACAC = 0.43
• GTGTTGAA = 0.4
• GGTGCAAC = 0.299
• CAGGCACC = -0.0396
• ACTGCGAA = 0.315
• AAGTGTAC = 0.0291
• CTGTTGGA = 0.0599
• CTGGCACC = 0.411
• CTTTGCGA = 0.0629
• AAGTGGTA = 0.165
• TGTGCAAA = 0.197
• CTTGTCGC = 0.277
• AAGTGTTA = 0.467
• AGTCGACA = 0.253
• CTGTTGAA = -0.0551
• ACATTTCA = 0.125
• ATTGTCAG = 0.134
• ATTGGAGG = 0.0195
• AACGAGCC = -0.319
• AATGCGAT = 0.024
• AAGGGATT = -0.212
• AGTGCGAT = 0.427
• CCGGAGAA = -0.00469
• CACTGTGG = -0.16
• GCTGCGAC = 0.137
• TGTCGACA = 0.371
• CTCTTTTA = 0.105
• CCTAGATC = -0.0223
• CGCAAAAC = 0.0965
• GGTCGAGA = -0.252
• CAGTGTTC = -0.0572
• CAGTGTTA = 0.322
• GCTAACAA = 0.252
• CTTGTCAC = 0.405
• CTAGGCCC = -0.274
• CGCTACCA = 0.243
• AGTGCGTA = 0.146
• GGTGCAAA = 0.393
• CACGGGTC = 0.0871
• AAGTGTTC = 0.298
• CTTGGGGA = -0.196
